Entries and their shrunken log2 fold change values follow.
Tested on: Escherichia coli TOP10
assay-remarks: shrunken log2 fold change of peptide-encoding DNA abundance (4.5 h post-induction vs induction); higher = less antimicrobial activity (less host growth inhibition)
experimental-setup: time post-induction: 4.5 h; library: site-saturation at positions 5, 18, 19, 20
metric-name: shrunken log2 fold change

> print(dat)
          primary.sequence                metric.name  assay.result
1  RRIRERPPRLPRPRPRPGLNPRP  shrunken log2 fold change         0.127
2  RRIRKRPPRLPRPRPRPGVGPRP  shrunken log2 fold change         0.818
3  RRIRPRPPRLPRPRPRPDVIPRP  shrunken log2 fold change       -0.0251
4  RRIRQRPPRLPRPRPRPLSGPRP  shrunken log2 fold change        -0.252
5  RRIRIRPPRLPRPRPRPNACPRP  shrunken log2 fold change       0.00304
6  RRIRLRPPRLPRPRPRPIYIPRP  shrunken log2 fold change          -1.1
7  RRIRLRPPRLPRPRPRPIHHPRP  shrunken log2 fold change        -0.246
8  RRIRIRPPRLPRPRPRPIMLPRP  shrunken log2 fold change         0.112

---

Test system: Escherichia coli TOP10;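 also: peptides expressed intracellularly from a pBAD plasmid library in pooled LB shake-flask culture, induced with 0.3% L-arabinose, DNA abundance read by NGS, three biological replicates, DESeq2 with apeglm shrinkage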
assay-remarks: shrunken log2 fold change of peptide-encoding DNA abundance (4.5 h post-induction vs induction); higher = less antimicrobial activity (less host growth inhibition)
experimental-setup: time post-induction: 4.5 h; library: site-saturation at positions 5, 18, 19, 20
Entries and their shrunken log2 fold change values follow.
metric-name: shrunken log2 fold change

> print(dat)
           primary.sequence                metric.name  assay.result
 1  RRIRFRPPRLPRPRPRPNDRPRP  shrunken log2 fold change        -0.108
 2  RRIRWRPPRLPRPRPRPEDIPRP  shrunken log2 fold change       -0.0433
 3  RRIRDRPPRLPRPRPRPAWEPRP  shrunken log2 fold change          1.07
 4  RRIRGRPPRLPRPRPRPSIPPRP  shrunken log2 fold change        -0.137
 5  RRIRCRPPRLPRPRPRPQMLPRP  shrunken log2 fold change        0.0498
 6  RRIRIRPPRLPRPRPRPCCYPRP  shrunken log2 fold change        -0.495
 7  RRIRSRPPRLPRPRPRPMRSPRP  shrunken log2 fold change        0.0162
 8  RRIRVRPPRLPRPRPRPMGDPRP  shrunken log2 fold change        -0.104
 9  RRIRTRPPRLPRPRPRPTMVPRP  shrunken log2 fold change       -0.0941
10  RRIRGRPPRLPRPRPRPACHPRP  shrunken log2 fold change         0.889
11  RRIRERPPRLPRPRPRPPHMPRP  shrunken log2 fold change        -0.152
12  RRIRGRPPRLPRPRPRPDKNPRP  shrunken log2 fold change          0.32
13  RRIRRRPPRLPRPRPRPIHRPRP  shrunken log2 fold change        -0.041
14  RRIRRRPPRLPRPRPRPSLKPRP  shrunken log2 fold change         0.108
15  RRIRSRPPRLPRPRPRPIYYPRP  shrunken log2 fold change        -0.641
16  RRIRGRPPRLPRPRPRPKPEPRP  shrunken log2 fold change         0.819
17  RRIRRRPPRLPRPRPRPAKSPRP  shrunken log2 fold change         0.242
18  RRIRFRPPRLPRPRPRPSSFPRP  shrunken log2 fold change        -0.227
19  RRIRIRPPRLPRPRPRPSWSPRP  shrunken log2 fold change        -0.458
20  RRIRARPPRLPRPRPRPPPQPRP  shrunken log2 fold change          1.31
21  RRIRGRPPRLPRPRPRPWWIPRP  shrunken log2 fold change        0.0656
22  RRIRYRPPRLPRPRPRPFDKPRP  shrunken log2 fold change       -0.0924
23  RRIRHRPPRLPRPRPRPTGNPRP  shrunken log2 fold change        -0.215
24  RRIRERPPRLPRPRPRPDQIPRP  shrunken log2 fold change        -0.084
25  RRIRKRPPRLPRPRPRPIFCPRP  shrunken log2 fold change         0.387
26  RRIRQRPPRLPRPRPRPGLWPRP  shrunken log2 fold change         0.452
27  RRIRSRPPRLPRPRPRPGAPPRP  shrunken log2 fold change         0.613
28  RRIRSRPPRLPRPRPRPNKDPRP  shrunken log2 fold change        -0.651
29  RRIRMRPPRLPRPRPRPKWHPRP  shrunken log2 fold change         0.349
30  RRIRGRPPRLPRPRPRPNNGPRP  shrunken log2 fold change        -0.363
31  RRIRYRPPRLPRPRPRPKGKPRP  shrunken log2 fold change        -0.215
32  RRIRCRPPRLPRPRPRPSKIPRP  shrunken log2 fold change        -0.597

Origin of measurements: the supplement of paper PMC9112550
